ASSAY_REMARKS: Aqueous solubility assay, Protocol A, nephelometry method
Format: physicochemical
PARTICULARS: PBS with 5% DMSO, 23 °C, aqueous with cosolvent or surfactant or cyclodextrin, kinetic from dmso stock, PBS pH 7.4, 5% DMSO, at the day of experiment, read-out: Aqueous solubility (assay validation)
METRIC_NAME: solubility at 24 h

* CC(=O)Oc1ccccc1C(=O)O [acetylsalicylic acid, reference compound] | > 100 µg/mL

====

ASSAY_REMARKS: Mouse microsomal stability assay
Assay type: in vitro ADME
PARTICULARS: pH 7.4; mouse liver microsomes, 37° C.
METRIC_NAME: microsomal CLint (µL/min/mg)

• CC(C)c1onc(-c2c(Cl)cccc2Cl)c1CCc1ccc(Oc2ccc(C(=O)O)cc2)cc1 [Compound A, reference compound] = 207
• CC(C)c1onc(-c2c(Cl)cccc2Cl)c1COc1ccc(N(C)Cc2ccc(C(=O)O)cc2)c(C(F)(F)F)n1 = 120

====

Parameter: concentration at 15 min. Scope: all listed entries.
ASSAY_REMARKS: Pharmacokinetic parameters in C57BL/6 mice (plasma concentration after peroral gavage)
Assay type: in vivo
PARTICULARS: mouse, oral, sampling time 15 min, perorally by gavage 10 mg/kg, male C57BL/6 mice, read-out: mean plasma conc.
Experimental: Information on the rate and extent of absorption of the test compounds were generated using two distinct animal models, C57/BI/6J and C57/BLKS/J(mLepr^db/db) mice. Compounds were applied perorally by gavage at 10 mg/kg each to male 8 weeks old C57BL/6 mice and plasma concentrations of the test items were determined by LC-MS/MS (Table 11). […]
METRIC_NAME: concentration at 15 min (ng/mL)

- CC(C)c1onc(-c2c(Cl)cccc2Cl)c1COc1ccc(/C=C/c2cccc(C(=O)O)c2)c(Cl)c1 [Compound B, reference compound]: 1600
- CC(C)c1onc(-c2c(Cl)cccc2Cl)c1COc1ccc(N(C)Cc2ccc(C(=O)O)cc2)c(C(F)(F)F)n1: 1780

====

ASSAY_REMARKS: Mouse microsomal stability assay
Assay type: in vitro ADME
PARTICULARS: pH 7.4; mouse liver microsomes, 37° C.
METRIC_NAME: half-life (min)

* CC(C)c1onc(-c2c(Cl)cccc2Cl)c1CCc1ccc(Oc2ccc(C(=O)O)cc2)cc1 [Compound A, reference compound] | 22
* CC(C)c1onc(-c2c(Cl)cccc2Cl)c1COc1ccc(N(C)Cc2ccc(C(=O)O)cc2)c(C(F)(F)F)n1 | 38

====

ASSAY_REMARKS: Rat microsomal stability assay
Format: in vitro ADME
PARTICULARS: liver microsomes, 37° C., NADPH, 45 minute, read-out: Rat liver microsome clearance
Parameter: microsomal CLint. Scope: all listed entries.
METRIC_NAME: microsomal CLint (µL/min/mg)

• Cc1cc(OCc2c(-c3c(Cl)cccc3Cl)noc2C(C)C)cnc1NC(=O)c1ccc(C(=O)O)cc1 = 57
• Cc1onc(-c2c(Cl)cccc2Cl)c1COc1ccc(NC(=O)c2cccc(C(=O)O)c2)cn1 = 149
• CC(C)c1onc(-c2c(Cl)cccc2Cl)c1COc1ccc(/C=C/c2cccc(C(=O)O)c2)c(Cl)c1 [Compound B, reference compound] = 310
• Cc1cc(OCc2c(-c3c(Cl)cccc3Cl)noc2C(C)C)cnc1N(C)C(=O)c1ccc(C(=O)O)cc1 = 55
• CC(C)c1onc(-c2c(Cl)cccc2Cl)c1COc1ccc(N(C)C(=O)c2ccc(-c3nnn[nH]3)cc2)c(C(F)(F)F)n1 = 169
• CC(C)c1onc(-c2c(Cl)cccc2Cl)c1COc1ccc(N(C)C(=O)c2ccc(C(=O)O)cc2)c(C(F)(F)F)n1 = 45
